Origin of the recorded values: patent US12624044B2

So I've got a bunch of compounds here, and I need their Dmax values.
target_under_test: SMARCA2 (Homo sapiens)
Sequence (P51531 whole entry): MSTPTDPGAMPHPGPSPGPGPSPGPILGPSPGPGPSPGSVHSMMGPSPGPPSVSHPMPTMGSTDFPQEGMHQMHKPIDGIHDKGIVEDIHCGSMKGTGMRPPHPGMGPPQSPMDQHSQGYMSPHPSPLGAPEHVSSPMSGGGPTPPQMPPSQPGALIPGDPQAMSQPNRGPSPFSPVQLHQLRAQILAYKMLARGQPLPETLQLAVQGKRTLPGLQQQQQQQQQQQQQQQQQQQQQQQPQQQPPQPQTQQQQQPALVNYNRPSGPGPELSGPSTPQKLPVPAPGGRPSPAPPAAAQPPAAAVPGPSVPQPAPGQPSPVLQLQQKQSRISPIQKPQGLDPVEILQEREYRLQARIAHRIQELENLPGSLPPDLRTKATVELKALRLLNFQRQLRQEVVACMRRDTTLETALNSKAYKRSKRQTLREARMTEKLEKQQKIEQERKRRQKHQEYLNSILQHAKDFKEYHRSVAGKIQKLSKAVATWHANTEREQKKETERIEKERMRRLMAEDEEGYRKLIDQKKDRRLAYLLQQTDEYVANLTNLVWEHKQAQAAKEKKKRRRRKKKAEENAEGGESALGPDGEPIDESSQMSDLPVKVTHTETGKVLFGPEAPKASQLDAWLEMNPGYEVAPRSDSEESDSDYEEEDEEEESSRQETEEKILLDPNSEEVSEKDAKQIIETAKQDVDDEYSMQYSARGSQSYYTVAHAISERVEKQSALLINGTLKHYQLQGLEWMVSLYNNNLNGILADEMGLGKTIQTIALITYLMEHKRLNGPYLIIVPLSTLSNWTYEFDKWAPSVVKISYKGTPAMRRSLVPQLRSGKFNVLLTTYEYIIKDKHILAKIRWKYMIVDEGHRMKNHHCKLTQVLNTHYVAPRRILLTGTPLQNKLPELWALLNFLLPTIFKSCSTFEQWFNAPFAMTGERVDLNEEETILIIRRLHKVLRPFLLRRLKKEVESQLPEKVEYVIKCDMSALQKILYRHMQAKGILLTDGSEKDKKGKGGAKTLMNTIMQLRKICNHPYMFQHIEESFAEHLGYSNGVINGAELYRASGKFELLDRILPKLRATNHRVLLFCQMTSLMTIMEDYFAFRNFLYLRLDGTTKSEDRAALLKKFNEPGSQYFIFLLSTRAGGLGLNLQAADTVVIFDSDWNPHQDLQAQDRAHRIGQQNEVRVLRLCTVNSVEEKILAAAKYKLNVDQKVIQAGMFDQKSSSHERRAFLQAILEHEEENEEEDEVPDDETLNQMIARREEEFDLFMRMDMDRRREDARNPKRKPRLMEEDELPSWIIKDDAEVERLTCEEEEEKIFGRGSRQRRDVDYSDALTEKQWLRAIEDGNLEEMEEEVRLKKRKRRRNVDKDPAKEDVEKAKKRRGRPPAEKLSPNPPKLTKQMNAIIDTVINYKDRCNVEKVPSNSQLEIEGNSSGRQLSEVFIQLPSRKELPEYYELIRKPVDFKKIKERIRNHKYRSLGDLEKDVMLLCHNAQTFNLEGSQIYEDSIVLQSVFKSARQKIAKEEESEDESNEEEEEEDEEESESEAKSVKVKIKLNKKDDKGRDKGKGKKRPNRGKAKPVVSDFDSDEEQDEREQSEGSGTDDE
protocol_notes: MSD SMARCA2 degradation in NCI-H1299 cell line (24 h)
Type: cell-based
Set-up: HC: NCI-H1299 cells treated with DMSO; host or cells: NCI-H1299
assay_conditions: NCI-H1299, NCI-H1299 cells

Exercise: Sample Cn1c(=O)n(C2CCC(=O)NC2=O)c2cccc(CCCCCCCN3CCC(Cn4cc(-c5cc(-c6ccccc6O)nnc5N)cn4)CC3)c21 (stereo not drawn) [I-149] — what was its Dmax?
Key: > 90%

Exercise: Entry O=C1CCC(n2c(=O)n(CCCCCc3cn(Cc4cccc(N5C[C@H]6C[C@@H]5CN6/C=C/C(=O)c5ccccc5O)n4)nn3)c3ccccc32)C(=O)N1 (stereo partly drawn) [I-55] has what Dmax?
Key: < 50%

Exercise: // returns reported Dmax for input Cn1c(=O)n(C2CCC(=O)NC2=O)c2ccc(CN3CC[C@@H](OCCCN4CCN(Cc5ccc(-c6cc(-c7ccccc7O)nnc6N)cc5)CC4)C3)cc21 (stereo partly drawn) [I-157]
Key: 70 to 90%
